All figures here come from ChEMBL document CHEMBL1201862.

Please respond with reported GI50 for every item in the list.
Tested on: HL-60
Protocol Summary: NCI tumour cell line growth inhibition, 48 h
Activity calls are given as the source filed them. Cut-off read from the data, not from the text of the source: active = GI50 up to about 1.1 µM and inactive = higher. Starred links: 1 amine or outer side, 2 acyl side, 3 side chain; linkers in the order of their positions; H or OH if unused. Positions of bridges follow the written chain, without caps; N, C: chain ends. Non-standard residues stand in square brackets, D forms with d. Residues, ends and D or L forms follow the SMILES beside them. Chains are numbered I, II in the order given. Actinocin(1to9) = Cc1c2oc3c(C)ccc(C(=O)[*:2])c3nc-2c(C(=O)[*:1])c(N)c1=O; aThr = C[C@H](O)[C@H](N)C(=O)O; NMeV = CN[C@H](C(=O)O)C(C)C; Sar = CNCC(=O)O

Look up GI50: O=C1c2cccc3cccc(c23)C2NCCCN12 (stereo not given) > 100 µM (inactive)

Look up GI50: "CSC1=Nc2ccccc2N=C(c2ccccc2)C1" 15.3 µM (inactive)

Look up GI50: O=C(O)CCC(NC(=O)c1ccc(Nc2nc3cc(C(F)(F)F)ccc3nc2-c2ccccc2)cc1)C(=O)O (stereo not given) 84.3 µM (inactive)

Look up GI50: "CC(C)c1ccc(/C=C2/C=C(c3ccc4ccccc4c3)OC2=O)cc1" 19.4 µM (inactive)

Look up GI50: c1ccc2c(c1)ncn2C1CCCCO1 (stereo not given) > 100 µM (inactive)

Look up GI50: "O=C(Nc1ccc([N+](=O)[O-])cc1)Nn1cnnc1" > 100 µM (inactive)

Look up GI50: COc1nc(=O)n(C2CC(N=[N+]=[N-])C(CO)O2)cc1C (stereo not given) > 100 µM (inactive)

Look up GI50: "O=[N+]([O-])c1cccc([N+](=O)[O-])c1S(=O)(=O)c1ccccc1" 2.71 µM (inactive)

Look up GI50: "O=c1c2cc(S(=O)(=O)Nc3ccccc3Cl)ccc2ncn1NS(=O)(=O)c1ccc(Br)cc1" > 37.5 µM (inactive)

Look up GI50: NC1CNC(=O)c2cscc21 (stereo not given) > 100 µM (inactive)

Look up GI50: "Nc1ccccc1.O=P(O)(OP(=O)(O)c1ccccc1)c1ccccc1" 65.3 µM (inactive)

Look up GI50: "CC1=C(C(=O)Nc2ccccc2)C(c2cc(Cl)cc(Cl)c2)C(C(=O)Nc2ccccc2)=C(C)N1" 1.78 µM (inactive)

Look up GI50: "CC(C)(CO)CNc1nc(N)nc(Cl)c1C=O" 3.9 µM (inactive)

Look up GI50: "O=CNc1ccc(S(=O)(=O)c2ccc(NC=O)cc2)cc1" > 100 µM (inactive)

Look up GI50: "COc1ccc2c(c1)[n+]([O-])c(-c1ccc(C)cc1)c(N)[n+]2[O-]" 43.9 µM (inactive)

Look up GI50: "CCOC(=O)c1cc(C2=CCNC2=O)c(-c2cc(C)no2)[nH]1" 22.3 µM (inactive)

Look up GI50: "O=C1C=C2SC3C[C@@]24CC1[N+]1=c2c4c(c(O)c4c2=C(C=N4)CC1)N3" 1.46 µM (inactive)

Look up GI50: C=C(C)C1CC/C(C)=C/CCC2(C)OC2CC/C(CO)=C\C1O (stereo not given) 59.2 µM (inactive)

Look up GI50: COc1cc2c(cc1OC)C(SC)C(=O)N(Cc1cccc(OC)c1OC)CC2 (stereo not given) 0.411 µM (active)

Look up GI50: "COc1ccc2c(c1)-c1nc(=S)n(CCCN(C)C)c3ccc([N+](=O)[O-])c(c13)N2" 0.0269 µM (active)

Look up GI50: Cc1cnc2c(c1)C(=O)C1=C(OC(C)(C)CC1O)C2=O (stereo not given) 4.45 µM (inactive)

Look up GI50: "Cc1cn(S(=O)(=O)c2ccccc2)c2c(OCc3ccccc3)cc(NS(C)(=O)=O)cc12" 4.52 µM (inactive)

Look up GI50: Clc1ccc(C2=CC(c3ccccc3)N3C(=N[C@H]4CCCC[C@@H]43)N2)cc1 (stereo not given in full) 2.82 µM (inactive)

Look up GI50: N#CC(C#N)=Cc1ccc2c(c1)OC(Cl)O2 (stereo not given) 6.92 µM (inactive)

Look up GI50: "C/N=c1\ss/c(=N\C(=S)N(C)C)n1C1CCCCC1" > 100 µM (inactive)

Look up GI50: "N=C(N)SCc1cc(Cl)cc(Cl)c1O" 3.21 µM (inactive)

Look up GI50: CC1(CF)SCc2nc3ccccc3n21 (stereo not given) > 100 µM (inactive)

Look up GI50: "NC1=C(NC(=O)Cc2ccc(F)cc2)C(=O)c2ccccc2C1=O" 35.1 µM (inactive)

Look up GI50: Cc1c2oc3c(C)ccc(C(=O)N[C@@H]4C(=O)N[C@H](C(C)C)C(=O)N5CCC[C@H]5C(=O)N(C)CC(=O)N(C)[C@@H](C(C)C)C(=O)O[C@H]4C)c3nc-2c(C(=O)N[C@@H]2C(=O)N[C@H](C(C)C)C(=O)N3CCC[C@H]3C(=O)N(C)CC(=O)N(C)[C@@H](C(C)C)C(=O)O[C@H]2C)c(N)c1=O (I: [aThr][dV]P[Sar][NMeV] / II: [aThr][dV]P[Sar][NMeV]; ester I:1-I:C, II:1-II:C; linker I:N-II:N via Actinocin(1to9)) 0.00231 µM (active)

Look up GI50: "CC1(C)OC(=O)C(C#N)=C1C[n+]1ccccc1" > 10 µM (inactive)

Look up GI50: "CC(=O)Nc1ccc(S(=O)(=O)Nc2nnc(S(N)(=O)=O)s2)cc1" > 100 µM (inactive)

Look up GI50: "O=C(O)c1ccc(OCc2nc3cc(C(F)(F)F)ccc3nc2-c2ccccc2)cc1" 40 µM (inactive)

Look up GI50: "O=S(=O)(O)c1ccc(/N=N/c2ccc(/N=N/c3c(O)ccc4cc(S(=O)(=O)O)ccc34)cc2)cc1" > 100 µM (inactive)

Look up GI50: O=C1C2C=CC(C2)C(c2ccc(O)cc2)N1O (stereo not given) > 100 µM (inactive)

Look up GI50: "Cc1ccnc(Nc2[nH]c(C(=O)c3ccc(Cl)cc3)c(N)c2C(=S)Nc2ccccc2)c1" 23.8 µM (inactive)

Look up GI50: "O=C1Nc2nnc(S)n2NC12c1ccccc1-c1ccccc12" > 100 µM (inactive)

Look up GI50: "N#CC1(C#N)C(c2ccc(C3C(C#N)(C#N)C3(C#N)C#N)cc2)C1(C#N)C#N" > 100 µM (inactive)

Look up GI50: "COc1ccc(Oc2ccccc2N)cc1" 21 µM (inactive)

Look up GI50: "Cn1c(O)c(C(=O)Nc2ccc([N+](=O)[O-])cc2)c(=O)n(C)c1=S" 2.25 µM (inactive)

Look up GI50: "CC(=O)OCCN1c2ccccc2Sc2cnccc21" > 10 µM (inactive)
